Target: wild-type EGFR (Homo sapiens)
Construct: purchased Signalchem
Sequence (P00533 25-1210): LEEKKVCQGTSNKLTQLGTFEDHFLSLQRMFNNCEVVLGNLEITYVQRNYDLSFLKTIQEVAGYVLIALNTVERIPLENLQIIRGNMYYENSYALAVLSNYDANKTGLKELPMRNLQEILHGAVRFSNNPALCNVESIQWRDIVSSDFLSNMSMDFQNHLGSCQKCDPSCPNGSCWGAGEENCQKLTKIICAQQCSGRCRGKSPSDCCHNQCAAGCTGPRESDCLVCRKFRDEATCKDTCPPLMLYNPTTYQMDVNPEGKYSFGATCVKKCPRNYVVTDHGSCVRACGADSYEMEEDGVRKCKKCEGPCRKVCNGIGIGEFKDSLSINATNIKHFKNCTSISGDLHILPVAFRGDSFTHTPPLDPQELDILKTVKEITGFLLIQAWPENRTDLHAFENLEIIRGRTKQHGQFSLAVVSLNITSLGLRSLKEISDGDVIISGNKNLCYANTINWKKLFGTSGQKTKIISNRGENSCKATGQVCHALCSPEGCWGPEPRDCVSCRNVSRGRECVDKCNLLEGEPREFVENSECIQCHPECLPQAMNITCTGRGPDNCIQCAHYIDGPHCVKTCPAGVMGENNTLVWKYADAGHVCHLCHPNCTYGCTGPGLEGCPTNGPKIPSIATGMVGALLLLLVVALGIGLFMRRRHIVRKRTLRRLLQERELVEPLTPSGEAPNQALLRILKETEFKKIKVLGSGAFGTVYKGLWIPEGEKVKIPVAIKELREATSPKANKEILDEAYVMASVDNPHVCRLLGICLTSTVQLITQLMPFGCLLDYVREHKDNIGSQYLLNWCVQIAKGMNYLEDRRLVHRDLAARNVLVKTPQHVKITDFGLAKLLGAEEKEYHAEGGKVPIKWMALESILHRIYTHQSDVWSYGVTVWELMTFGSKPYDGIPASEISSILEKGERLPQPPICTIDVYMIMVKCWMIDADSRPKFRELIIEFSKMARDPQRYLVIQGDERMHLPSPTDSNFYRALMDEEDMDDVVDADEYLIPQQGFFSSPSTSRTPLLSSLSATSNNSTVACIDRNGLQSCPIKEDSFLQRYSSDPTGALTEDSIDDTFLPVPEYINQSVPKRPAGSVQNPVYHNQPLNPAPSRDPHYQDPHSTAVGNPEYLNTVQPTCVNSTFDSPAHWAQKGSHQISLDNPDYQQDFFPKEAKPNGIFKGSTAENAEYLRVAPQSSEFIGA
Assay: Enzymology experiment in vitro (HTRF/FRET kinase activity), wild-type EGFR
Assay type: biochemical
Settings: HTRF KinEASE-TK, read-out: EGFR (WT) IC50
Protocol: 1. Experimental Materials HTRF KinEASE-TK kit detection reagent, purchased from Cisbio 1) 10 nL of gradient diluted compound was transferred into a 384-well experimental plate using Echo 550 (Labcyte). 2) 5 μL of 2×EGFR enzyme solution was added to the 384-well experimental plate and incubated at room temperature for 10 minutes. 3) 5 μL of 2× substrate solution containing polypeptide and ATP was added to the 384-well experimental plate and incubated at room temperature for 40 minutes. […]
pIC50: −log10 of the molar value.
assay.readout: pIC50

>>> print(df.to_string())
                                    molecule  obs_value
 0  COc1cc(N2CCC(N3CCN(C)C(C)C3)CC2)c(-c2cnn(C)c2)cc1Nc1ncc(Br)c(Nc2ccc3nccnc3c2P(C)(C)=O)n1 (stereo not shown)       9.00
 1  COc1nc(N2CCOCC2)c(-c2cnn(C)c2)cc1Nc1ncc(Br)c(Nc2ccc3nccnc3c2P(C)(C)=O)n1       8.01
 2  COc1cc(N2CCC(N3CCN(C)CC3)CC2)c(-c2cnn(C)c2)cc1Nc1ncc(Br)c(Nc2ccccc2N(C)S(=O)(=O)C2CC2)n1       8.36
 3  COc1cc(N2CCN3CCCC[C@H]3C2)c(-c2cnn(C)c2)cc1Nc1ncc(Br)c(Nc2ccc3nccnc3c2P(C)(C)=O)n1       8.42
 4  COc1nc(N2CCC3(CCN(CCF)CC3)CC2)c(-c2cnn(C)c2)cc1Nc1ncc(Br)c(Nc2ccc3nccnc3c2P(C)(C)=O)n1       8.48
 5  COc1cc(N2CCC3CCN(CC4CC4)C3C2)c(-c2cnn(C)c2)cc1Nc1ncc(Br)c(Nc2ccc3nccnc3c2P(C)(C)=O)n1 (stereo not shown) [compound 227]       8.57
 6  COc1cc(N2CCOCC2)c(-c2cnn(C)c2)cc1Nc1ncc(Br)c(Nc2cc3c(cc2P(C)(C)=O)CC3)n1       7.53
 7  COc1cc(N2CCN(CCN3CCOCC3)CC2)c(-c2cnn(C)c2)cc1Nc1ncc(Br)c(Nc2ccc3nccnc3c2P(C)(C)=O)n1       8.61
 8  COc1cc(N2CCC3(CN(C)CCO3)C2)c(-c2cnn(C)c2)cc1Nc1ncc(Br)c(Nc2ccc3nccnc3c2P(C)(C)=O)n1 (stereo not shown)       8.07
 9  COc1cc(N2CCC(OCC3CC3)CC2)c(-c2cnn(C)c2)cc1Nc1ncc(Br)c(Nc2ccc3ncccc3c2P(C)(C)=O)n1       7.97
10  COc1cc(N2CCN(C)C(CF)C2)c(-c2cnn(C)c2)cc1Nc1ncc(Br)c(Nc2ccc3nccnc3c2P(C)(C)=O)n1 (stereo not shown)       8.52
11  COc1cc(N2CCOCC2)c(-c2cnn(C)c2)cc1Nc1ncc(Br)c(Nc2cc3c(cc2N(C)S(C)(=O)=O)CC3)n1       7.28
12  COc1cc(N2CCC(F)CC2)c(-c2cnn(C)c2)cc1Nc1ncc(Br)c(Nc2ccc3nccnc3c2P(C)(C)=O)n1       8.08
